# Target desc: catalytic domain of the recombinant TACE protein (Homo sapiens)
# Construct: The catalytic domain of the recombinant TACE protein was expressed and purified; made in house
# Sequence (P78536 223-474 limits assumed): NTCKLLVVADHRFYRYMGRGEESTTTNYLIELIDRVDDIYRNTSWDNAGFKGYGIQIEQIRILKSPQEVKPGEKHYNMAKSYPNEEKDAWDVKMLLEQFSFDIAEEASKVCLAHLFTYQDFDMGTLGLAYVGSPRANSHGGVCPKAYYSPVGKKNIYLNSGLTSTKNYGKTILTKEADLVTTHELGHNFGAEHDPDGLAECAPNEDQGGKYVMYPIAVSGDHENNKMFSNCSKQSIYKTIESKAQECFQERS
# Test description: TACE FRET assay using TACE cat
# Type: biochemical
# Test parameters: read-out: TACE Inhibition (%)
Please provide measured inhibition at 1 µM for the entries that follow.
Give bare numbers, in %.

Consider the worked cases shown below.
CC#CCOc1ccc(S(=O)(=O)N[C@@H](Cc2c(C)n(Cc3cc(OC)cc(OC)c3)c3ccc(OC)cc23)C(=O)O)cc1 80
CC#CCOc1ccc(S(=O)(=O)N[C@@H](Cc2c(C)n(Cc3cccc(C(F)(F)F)c3)c3ccccc23)C(=O)O)cc1 50.5
CC#CCOc1ccc(S(=O)(=O)N[C@@H](Cc2cn(Cc3cccc(C#N)c3)c3ccc(C(=O)O)cc23)C(=O)O)cc1 -0.34
CC#CCOc1ccc(S(=O)(=O)N[C@@H](Cc2cn(Cc3ccccc3C(F)(F)F)c3ccc(C(=O)O)cc23)C(=O)O)cc1 10.7
CC#CCOc1ccc(S(=O)(=O)N[C@@H](Cc2c(C)n(CC(C)C)c3ccc(Cl)cc23)C(=O)O)cc1 68.5
CC#CCOc1ccc(S(=O)(=O)N[C@@H](Cc2cn(Cc3cccc(C)c3)c3ccc(Cl)cc23)C(=O)O)cc1 28

Switching to the query record.
Prompt: Entry CC#CCOc1ccc(S(=O)(=O)N[C@@H](Cc2cn(Cc3ccc(Cl)cc3)c3ccc(OC)cc23)C(=O)O)cc1 : reported inhibition at 1 µM = ?
Response: 39.3

* * *

# Target desc: recombinant human MMP-2 (Homo sapiens, UniProt P08253)
# Sequence (P08253 110-660): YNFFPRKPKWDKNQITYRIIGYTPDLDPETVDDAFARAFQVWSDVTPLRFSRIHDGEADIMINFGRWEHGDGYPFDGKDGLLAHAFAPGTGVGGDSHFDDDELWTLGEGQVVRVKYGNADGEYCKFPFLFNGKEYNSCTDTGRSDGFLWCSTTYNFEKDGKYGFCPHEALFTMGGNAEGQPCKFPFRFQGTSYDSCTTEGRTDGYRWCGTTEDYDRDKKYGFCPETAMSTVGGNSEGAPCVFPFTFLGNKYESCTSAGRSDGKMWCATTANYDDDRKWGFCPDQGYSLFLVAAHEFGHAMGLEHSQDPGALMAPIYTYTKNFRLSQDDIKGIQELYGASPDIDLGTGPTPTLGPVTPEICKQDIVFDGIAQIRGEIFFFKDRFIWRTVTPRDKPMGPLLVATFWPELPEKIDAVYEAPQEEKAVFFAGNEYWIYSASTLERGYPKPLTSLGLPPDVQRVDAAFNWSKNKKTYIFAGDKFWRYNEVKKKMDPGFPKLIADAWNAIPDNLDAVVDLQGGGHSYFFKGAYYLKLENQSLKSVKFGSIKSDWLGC
# Test description: In-vitro fluorescence (FRET) assay of MMP-2 activity
# Procedure: A continuous assay was used in which the substrate is a synthetic peptide containing a fluorescent group (7-methoxycoumarin; Mca) that is quenched by energy transfer to a 2,4-dinitrophenyl group. See Knight, C. […] The initial rate of the cleavage reaction was determined at 30° C. with a fluorescence plate reader (excitation filter of 330 nm and emission filter of 395 nm) immediately after substrate addition. […] In-Vitro Fluorescence Assay of MMP-2 Activity
Friendly reminder: IC50 below 1 µM is Yes, at or above is No.

Compound	Group
CC#CCOc1ccc(S(=O)(=O)N[C@@H](Cc2c[nH]c3ccc(OCc4ccccc4)cc23)C(=O)O)cc1 [Example 224]	No
CC#CCOc1ccc(S(=O)(=O)NC(Cc2c[nH]c3ccc(OCc4ccccc4)cc23)C(=O)O)cc1 (racemic) [Example 20]	No
CC#CCOc1ccc(S(=O)(=O)N[C@@H](Cc2c[nH]c3ccc(OC)cc23)C(=O)O)cc1 [Example 221]	No
CC#CCOc1ccc(S(=O)(=O)N[C@@H](Cc2c[nH]c3ccc(C)cc23)C(=O)O)cc1 [Example 218]	Yes
CC#CCOc1ccc(S(=O)(=O)N[C@H](Cc2cn(Cc3ccc(F)cc3)c3ccccc23)C(=O)O)cc1 [Example 28]	No
CC#CCOc1ccc(S(=O)(=O)NC(Cc2cn(Cc3ccc(OC)cc3)c3ccc(C)cc23)C(=O)O)cc1 (centres unmarked) [Example 47]	Yes

Prompt: Quick check: IC50 of CC#CCOc1ccc(S(=O)(=O)NC(Cc2c[nH]c3ccc(OC)cc23)C(=O)O)cc1 (racemic) [Example 4] under 1 µM?
Response: No

Prompt: Quick check: IC50 of CC#CCOc1ccc(S(=O)(=O)NC(Cc2c[nH]c3ccc(C)cc23)C(=O)O)cc1 (racemic) [Example 6] under 1 µM?
Response: No

Origin of the recorded values: patent US7576222B2
